# system_tested: eOD-GT8 (monomeric ligand) (Human immunodeficiency virus 1, …)
pKd: −log10 of the molar value.
Decision: pKd >= 8 yields T, all other cases yield F.

{"columns": ["binder", "category"],
 "data": [
  ["g5-D78-6_CLK19 (antibody, V domains shown) VH: QVQLVQSGAEVKKPGASVKVSCKTSGYTFTGYFLHWVRQAPGQGLEWMGWINPNSGGINYAQKFQGRVTMTRDTSIHTAYMELSRLRSDDTAVYYCTPVLTNFRWPFAFWGQGTLVTVSS VL: DIQMTQSPSSLSASVGDRVTITCQASQDIKNYLNWYQQKPGTAPKLLIYDTSNLETGVPSRFSGGGSGTDFTFTISSLQPEDIATYYCQQYETFGPGTKVDIK", "T"]
]}

Please indicate if the recorded pKd for g5-D78-13_CLK19 (antibody, V domains shown) VH: QVQLVQSGAEVKKPGASVKVSCKASGYIFTDYNMHWVRQAPGQGLEWMGWINPSFGGRNIVQKFQGRVTMTRDTSISTAYMELSGLRSDDTAVYFCTPVLAPFRWRFAYWGQGTLVTVSS VL: DIQMTQSPSSLSASVGDRVTITCQASQDINYLNWYQQKPGKAPKLLIYDASNLETGVPSRFSGSGSGTDFTFTISSLQPEDIATYYCQQYAAFGPGTKVNIK meets or exceeds 8.
T

Please indicate if the recorded pKd for g28v2-D38-8_CLK19 (antibody, V domains shown) VH: QVQLVQSGAEVKKPGASVKVSCKASGYSFSGYYMHWVRQAPGQGLEWMGWINPNHGGTNYAQKFQDRVTMTRDTSISTAYMELSRLRSDDTAVYFCARVDESWFGKKWTFDIWGQGTMVTVSS VL: DIQMTQSPSSLSASVGDRVTITCQASQDIGNYLNWYQQKPGKAPKLLIYDTSNLETGVPSRFSGSGSGTDFSFTIASLQPEDIATYYCQQYDIFGPGTKVDIK meets or exceeds 8.
F

Could you please find out whether GT8-D36-15_CLK09 (antibody, V domains shown) VH: QVQLVQSGAEVKKPGASVKVSCKASGYTFTGHYIHWVRQAPGQGLKWMGWINPNSGGTNNAQKFQGRVTMTRDTSISTAYLELSRLRSDDTAVYYCARVEGLWTFDIWGQGTMVTVSS VL: DIQMTQSPSSLSASVGDRVTITCQASQDISNYLNWYQQTPGKAPKLLIYDASNLETGVPSRFSGSGSGTDFTFTISSLQSEDIATYYCQQFEFFGGGTKVEIK has pKd that meets 8 or exceeds it?
F

Check this binder for pKd at or above 8: g28v2-D46-11_CLK19 (antibody, V domains shown) VH: QVQLVQSGAEVKKPGASVRVSCKASGYTFTDYYMHWVRQAPGQGLEWMGWINPHSGGVNYAHKFQGRVTMTRDTSISTAYMELSRLRSDDTAVYYCTTALAGHGWRFDYWGQGTLVTVSS VL: DIQMTQSPSSLSASVGDRVTITCQASQDTSNYLNWYQLKPGKAPKLLIYDASNLETGVPSRFSGSGSGTDFTFTISGLQPEDIATYYCQQYETFGPGTKVDIK
T
